# study-system: progesterone receptor (PR) (Homo sapiens, UniProt P06401)
# Sequence (P06401 679-933 limits assumed): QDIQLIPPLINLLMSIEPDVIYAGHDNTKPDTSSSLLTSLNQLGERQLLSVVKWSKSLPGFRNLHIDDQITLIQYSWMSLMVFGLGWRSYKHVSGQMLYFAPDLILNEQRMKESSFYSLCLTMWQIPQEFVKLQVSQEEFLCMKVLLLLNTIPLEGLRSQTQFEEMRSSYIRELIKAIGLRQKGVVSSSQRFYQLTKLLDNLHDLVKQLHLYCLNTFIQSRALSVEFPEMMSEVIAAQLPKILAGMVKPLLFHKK
# assay-remarks: PR-mediated induction of transcription by R5020 in T47D K5pLuc cells (luciferase reporter and endogenous alkaline phosphatase)
# Format: cell-based
# condition-info: T47D, 8 µM; AP (alkaline phosphatase); R5020 1.0 nM
# Experimental: The engineered T47D breast cancer cell lines employed for the assessment of flavonoid activity on glucocorticoid receptor (GR) and progesterone receptor (PR) signaling permitted the facile quantitation transcription of both an endogenous gene and a stably integrated reporter gene. […] For all cell lines, cell harvesting and the luminescence assay for alkaline phosphatase and/or luciferase were performed as previously described in detail. […]
readout-label: inhibition at 8 µM (%)

These recorded examples may help you get a feel for the data.
O=c1c(-c2ccc(O)cc2)coc2cc(O)cc(O)c12 [5,7,4′-trihydroxyisoflavone] = 32
O=c1cc(-c2ccc(O)c(O)c2)oc2cccc(O)c12 [5,3′,4′-trihydroxyflavone] = 65
O=c1cc(-c2ccc(O)c(O)c2)oc2cc(O)cc(O)c12 [5,7,3′,4′-tetrahydroxyflavone] = 95

a = O=c1c(-c2ccc(O)cc2)coc2cc(O)ccc12 [7,4′-dihydroxyisoflavone]
b = O=C1CC(c2ccc(O)cc2)Oc2cc(O)cc(O)c21 (centres unmarked) [5,7,4′-trihydroxyflavanone]
-- ask Compare a and b and name the one whose reported inhibition at 8 µM is smaller. Lab note: record the label of whichever item you select.
-- reply a
(a: 38%, b: 90%)

I = O=c1cc(-c2ccccc2)oc2cc(O)cc(O)c12 [5,7-dihydroxyflavone]
II = O=c1cc(-c2ccc(O)cc2)oc2ccccc12 [4′-hydroxyflavone]
-- ask Compare I and II and name the one whose reported inhibition at 8 µM is smaller. Lab note: record the label of whichever item you select.
-- reply II
(II: 49%, I: 89%)
